Biological target: CD3ε homodimer protein (human, UniProt P07766 23-126, limits assumed)
Sequence (P07766 23-126 limits assumed): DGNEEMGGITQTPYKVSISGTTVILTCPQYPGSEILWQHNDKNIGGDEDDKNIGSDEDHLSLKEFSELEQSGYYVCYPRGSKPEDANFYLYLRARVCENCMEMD
Assay: SPR, immobilized CD3ε homodimer;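 further: biacore T200 surface plasmon resonance at 25 °C, antibody variants flowed as analytes over amine-coupled CD3ε homodimer on a CM4 chip, variant binding amount divided by that of GLS3000 antibody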
readoutLabel: ratio of amounts bound (vs GLS3000)
API doc: respond with a numeric literal and nothing else, no unit.

GLS3000 T31K (antibody, name in Kabat numbering, V domains shown, one-arm format as m2) VH: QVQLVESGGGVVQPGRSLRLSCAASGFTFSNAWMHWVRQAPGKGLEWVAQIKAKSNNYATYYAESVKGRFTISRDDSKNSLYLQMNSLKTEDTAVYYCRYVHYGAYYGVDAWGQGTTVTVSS VL: DIVMTQSPLSLPVTPGEPASISCRSSQSLVHSNRNKYLHWYQQKPGQAPRLLIYKVSNRFSGVPDRFSGSGSGTDFTLKISRVEAEDVGVYYCGQGTQVPYTFGQGTKLEIK yielded ratio of amounts bound (vs GLS3000) of 1.04

Recorded result, GLS3000 S56W (antibody, name in Kabat numbering, V domains shown, one-arm format as m2) VH: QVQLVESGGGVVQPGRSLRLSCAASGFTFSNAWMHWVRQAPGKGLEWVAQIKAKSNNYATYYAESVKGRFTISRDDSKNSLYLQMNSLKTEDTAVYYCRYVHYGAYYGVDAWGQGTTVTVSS VL: DIVMTQSPLSLPVTPGEPASISCRSSQSLVHSNRNTYLHWYQQKPGQAPRLLIYKVSNRFWGVPDRFSGSGSGTDFTLKISRVEAEDVGVYYCGQGTQVPYTFGQGTKLEIK , ratio of amounts bound (vs GLS3000): 1.38

Lab note: GLS3000 K74T (antibody, name in Kabat numbering, V domains shown, one-arm format as m2) VH: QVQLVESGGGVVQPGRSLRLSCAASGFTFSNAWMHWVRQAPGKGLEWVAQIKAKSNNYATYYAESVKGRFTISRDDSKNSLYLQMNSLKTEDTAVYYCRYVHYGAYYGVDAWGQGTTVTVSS VL: DIVMTQSPLSLPVTPGEPASISCRSSQSLVHSNRNTYLHWYQQKPGQAPRLLIYKVSNRFSGVPDRFSGSGSGTDFTLTISRVEAEDVGVYYCGQGTQVPYTFGQGTKLEIK gave ratio of amounts bound (vs GLS3000) of 0.84
